- System: NCI-H23 lung
- experiment: NCI-60 one-dose screen, 48 h (100 = growth as untreated, 0 = no growth, -100 = all killed)
- condition.set: 10 µM unless noted
This is part of a sample that, as a whole, favours compounds with a hit. Of some 83,000 tested, about 20% had one in any assay.

cpd.smiles	growth [%]
COc1ccc(OC)c(-c2cc(-c3ccc(Cl)cc3)c3c(N)c(C(=O)c4ccc(Cl)cc4)sc3n2)c1	91.4
CC[C@]12C=CCN3CC[C@@]4(c5cc(NC(=O)CCC(=O)O[C@H]6CC[C@H]7[C@@H]8CCC9=CC(=O)CC[C@@H]9[C@H]8CC[C@]67C)c(OC)cc5N(C)[C@H]4[C@@](O)(C(=O)OC)[C@@H]1OC(C)=O)[C@@H]32	90.7
Cc1cccc(-c2cn3ccnc3c(-c3ccc4ncn(Cc5ccccc5)c4c3)n2)c1	90.9
C/C(=N\Nc1cc(C)nc2ccc(Br)cc12)c1ccc([N+](=O)[O-])cc1	88.4
CC1(C)NCCC[C@]2(C)[C@H]3CC[C@@H]4[C@H]5[C@H](C(=O)/C=C/c6ccco6)CC[C@]5(CO)CC[C@@]4(C)[C@]3(C)CC[C@@H]12	89.1
CCCCCCNC(=O)Oc1ccc(/C(=C(\C)c2ccccc2)c2ccc(OCCN3CCCCC3)cc2)cc1	68.7

----------
- Tested on: OVCAR-4 ovarian
- experiment: NCI-60 one-dose screen, 48 h (100 = growth as untreated, 0 = no growth, -100 = all killed)
- condition.set: 10 µM unless noted
The panel holds about 83,000 compounds, 20% with a hit somewhere; the sample as a whole holds those more often.
Kindly apply the following: y if growth is less than 50%, n in every other case.

> print(dat)
                                   compound  assigned.category
1  CC(=O)Nc1cccc(-c2ccc3c(c2)NC(=O)/C3=C\c2ccc[nH]2)c1                  n
2  CNCCn1c(=O)c2cc(OC)c(OC)cc2c2ccc3cc4c(cc3c21)OCO4                  y
3  CC(=O)Nc1ccc(-c2ccc3c(c2)NC(=O)/C3=C\c2ccc[nH]2)cc1                  n
4  COc1ccc2c(c1)C(=O)CC(c1ccccc1OC)O2 (centres undefined)                  n
5  COc1ccc(/C=N/NC(=O)c2cnn3c2NC(c2ccccc2)C3)cc1OC (centres undefined)                  n
6  NCCCCCCNc1cc(-c2cccc(OC(F)(F)F)c2)nc2ccc(N3CCCC3)cc12                  y
7  COc1ccccc1NC(=O)C1CC(c2ccc(F)cc2)=NO1 (centres undefined)                  n
8        N#Cc1c(NC(=O)NCc2ccccc2)sc2c1CCCC2                  y
9  O=C(Nc1ccccc1)Nc1ccc2cc3ccc(NC(=O)Nc4ccccc4)cc3nc2c1                  y

----------
- Test system: MOLT-4 leukemia
- experiment: NCI-60 one-dose screen, 48 h (100 = growth as untreated, 0 = no growth, -100 = all killed)
- condition.set: 10 µM unless noted
- Procedure: Growth inhibition of the MOLT-4 human tumor cell line is measured as a screen for anti-cancer activity. Cells are grown in 96 well plates and exposed to the test compound for 48 hours. Compounds are tested at a single concentration, which is 10^-5 M for most compounds. The reported endpoint is percent growth (GI% or GIPRCNT), where numbers from 0 - 100% represent growth inhibition, and numbers from -100% - 0 represent cell death. For example, a value of 40 represents 60% growth inhibition. […]
About 83,000 compounds went through this panel and 20% of them were active in at least one assay; those are over-represented in the sample as a whole.
parameter: growth (%)

> print(dat)
                                   compound  meas.value
1  O=C1Nc2cc(-c3ccc(NC(=O)c4ccccc4)cc3)ccc2/C1=C/c1ccc[nH]1        92.8
2  COc1cc(C2C3CC4CCCC[C@H]4N3[C@@]3(C(=O)Nc4cc(Cl)ccc43)C2C(=O)c2nc3ccccc3[nH]2)cc(OC)c1OC (stereo partly drawn)          14
3  O=C(c1nnc(Nc2ccccc2Br)o1)c1c[nH]c2ccccc12         106
